tested on: Ovis aries; experiment: Percent reduction in nematode fecal egg count was measured in sheep following 50 mg/kg p.o.; assay type: functional; settings: route oral
Rule: Reduction under 60% gives Not satisfied, otherwise Satisfied.

Quick check, Reduction >= 60%? S=C=Nc1ccc2oc(-c3ccccc3)nc2c1 Not satisfied

Quick check, Reduction >= 60%? S=C=Nc1ccc2nc(-c3cccnc3)sc2c1.S=C=Nc1ccc2sc(-c3cccnc3)nc2c1 Satisfied

Quick check, Reduction >= 60%? COc1cc2sc(-c3cccnc3)nc2cc1N=C=S Not satisfied

Quick check, Reduction >= 60%? S=C=Nc1ccc2sc(-c3cccs3)nc2c1 Not satisfied

Quick check, Reduction >= 60%? S=C=Nc1ccc2nc(-c3ccccn3)sc2c1 Satisfied

Quick check, Reduction >= 60%? Cn1cccc1-c1nc2cc(N=C=S)ccc2o1 Not satisfied

Quick check, Reduction >= 60%? S=C=Nc1ccnc(-c2nc3ccccc3o2)c1 Not satisfied

Quick check, Reduction >= 60%? S=C=Nc1ccc2oc(-c3ccc(Cl)nc3)nc2c1 Satisfied

Quick check, Reduction >= 60%? S=C=Nc1ccc2nc(-c3ccccn3)oc2c1.S=C=Nc1ccc2oc(-c3ccccn3)nc2c1 Not satisfied

Quick check, Reduction >= 60%? S=C=Nc1cc(Cl)c2oc(-c3cccnc3)nc2c1 Not satisfied

Quick check, Reduction >= 60%? Cc1cc2oc(-c3ccccn3)nc2cc1N=C=S Satisfied

Quick check, Reduction >= 60%? S=C=Nc1ccc2oc(-c3ccncc3)nc2c1 Not satisfied

Quick check, Reduction >= 60%? S=C=Nc1ccc2nc(-c3ccc(N4CCOCC4)nc3)oc2c1.S=C=Nc1ccc2oc(-c3ccc(N4CCOCC4)nc3)nc2c1 Not satisfied

Quick check, Reduction >= 60%? S=C=Nc1ccc2nc(-c3cccnc3)oc2c1 Satisfied

Quick check, Reduction >= 60%? CN1CCN(c2ccc(-c3nc4cc(N=C=S)ccc4o3)cn2)CC1 Not satisfied

Quick check, Reduction >= 60%? S=C=Nc1ccc2nc(-c3cnccn3)oc2c1.S=C=Nc1ccc2oc(-c3cnccn3)nc2c1 Satisfied

Quick check, Reduction >= 60%? S=C=Nc1ccc2[nH]c(-c3ccccn3)nc2c1 Satisfied
